target: mTOR kinase (Homo sapiens, UniProt P42345); construct: FLAG; made in house; assay: In vitro mTOR kinase assay, Test (a)(i) (AlphaScreen); type: biochemical; details: recombinant FLAG-tagged mTOR (1362-2549), ATP 20 μM; read-out: Test (a)(i) IC50
Sequence (P42345 1362-2549): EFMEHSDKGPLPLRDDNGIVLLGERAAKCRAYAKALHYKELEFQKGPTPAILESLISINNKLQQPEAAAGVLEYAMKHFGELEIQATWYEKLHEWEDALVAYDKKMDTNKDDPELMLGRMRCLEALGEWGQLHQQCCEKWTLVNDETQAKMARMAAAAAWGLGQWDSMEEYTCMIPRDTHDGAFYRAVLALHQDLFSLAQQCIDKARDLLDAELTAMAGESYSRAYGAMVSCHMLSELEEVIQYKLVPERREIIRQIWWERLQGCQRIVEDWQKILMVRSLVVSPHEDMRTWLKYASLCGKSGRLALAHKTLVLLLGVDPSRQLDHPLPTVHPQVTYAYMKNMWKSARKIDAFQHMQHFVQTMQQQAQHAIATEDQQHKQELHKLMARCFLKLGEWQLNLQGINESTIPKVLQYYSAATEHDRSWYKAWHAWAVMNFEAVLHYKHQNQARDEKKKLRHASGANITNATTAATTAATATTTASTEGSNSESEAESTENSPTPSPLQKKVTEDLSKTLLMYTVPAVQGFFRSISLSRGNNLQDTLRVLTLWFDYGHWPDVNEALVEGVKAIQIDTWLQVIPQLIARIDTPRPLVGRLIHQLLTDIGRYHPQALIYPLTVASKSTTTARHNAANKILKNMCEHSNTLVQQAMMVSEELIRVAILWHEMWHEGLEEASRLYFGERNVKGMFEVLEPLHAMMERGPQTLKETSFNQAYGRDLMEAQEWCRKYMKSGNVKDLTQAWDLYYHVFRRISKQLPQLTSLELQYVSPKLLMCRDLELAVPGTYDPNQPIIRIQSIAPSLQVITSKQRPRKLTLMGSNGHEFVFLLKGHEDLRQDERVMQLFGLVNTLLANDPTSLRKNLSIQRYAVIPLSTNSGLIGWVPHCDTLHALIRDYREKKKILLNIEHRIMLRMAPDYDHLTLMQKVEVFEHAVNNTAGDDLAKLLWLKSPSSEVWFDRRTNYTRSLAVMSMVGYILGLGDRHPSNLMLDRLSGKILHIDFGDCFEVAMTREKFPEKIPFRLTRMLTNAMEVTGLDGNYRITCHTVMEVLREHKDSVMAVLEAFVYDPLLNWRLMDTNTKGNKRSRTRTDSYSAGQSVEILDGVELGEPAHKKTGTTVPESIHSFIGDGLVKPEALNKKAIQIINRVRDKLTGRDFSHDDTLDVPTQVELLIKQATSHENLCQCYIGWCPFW
// boundary case: IC50 equal to 3000 nM maps to False; strictly smaller maps to True

Below are worked cases with known answers.
Exercise: Please let me know if CS(=O)(=O)Cc1cc(N2CCOCC2)nc(-c2ccc(NC(=O)C(N)=O)cc2)n1 [Example 5s] shows IC50 below 3000 nM.
Solution: True

Exercise: Regarding CC(=O)Nc1ccc(-c2nc(CS(C)(=O)=O)cc(N3CCOCC3)n2)cc1CO [Example 1] , kindly confirm whether its IC50 is beneath 3000 nM.
Solution: True

Exercise: Answer whether the compound CS(=O)(=O)Cc1cc(N2CCOCC2)nc(-c2ccc(NC(=O)c3ccco3)cc2)n1 [Example 5i] has IC50 strictly less than 3000 nM
Solution: True

***
Exercise: Field: below-cutoff. Rule: recorded IC50 strictly less than 3000 nM. Subject: CS(=O)(=O)Cc1cc(N2CCOCC2)nc(-c2ccc(NC(=O)C3=COCCC3)cc2)n1 [Example 5ag]
Solution: True

Exercise: IC50 strictly < 3000 nM for this compound? CC(=O)Nc1ccc(-c2nc(CS(C)(=O)=O)cc(N3CCOCC3)n2)cc1 [Example 4]
Solution: True

Exercise: Input CS(=O)(=O)Cc1cc(N2CCOCC2)nc(-c2ccc(NC(=O)C3CCOC3)cc2)n1 (stereo not drawn) [Example 5u] ; condition: IC50 strictly below 3000 nM. Does it hold?
Solution: False

Exercise: Find out if reported IC50 for CC(C)CC(=O)Nc1ccc(-c2nc(CS(C)(=O)=O)cc(N3CCOCC3)n2)cc1 [Example 5h] is less than 3000 nM
Solution: True

Exercise: Strictly below 3000 nM: is that where IC50 of CS(=O)(=O)Cc1cc(N2CCOCC2)nc(-c2ccc(NC(=O)C3CCC3)cc2)n1 [Example 5] sits?
Solution: True

Exercise: API: query returns whether the compound falls strictly under 3000 nM in IC50. Query: CS(=O)(=O)Cc1cc(N2CCOCC2)nc(-c2ccc(NC(=O)Cc3ccco3)cc2)n1 [Example 5ai]
Solution: True

Exercise: Does the reported IC50 of the following compound sit strictly below 3000 nM? CS(=O)(=O)Cc1cc(N2CCOCC2)nc(-c2ccc(NC(=O)c3cccnc3)cc2)n1 [Example 5r]
Solution: True

Exercise: Dear colleague, could you confirm whether IC50 of CO[C@H](C)C(=O)Nc1ccc(-c2nc(CS(C)(=O)=O)cc(N3CCOCC3)n2)cc1 [Example 5ap] falls below 3000 nM? Thanks.
Solution: False

Exercise: Does the reported IC50 of the following compound sit strictly below 3000 nM? CCOCCC(=O)Nc1ccc(-c2nc(CS(C)(=O)=O)cc(N3CCOCC3)n2)cc1 [Example 5l]
Solution: True

Exercise: Say whether its IC50 is strictly beneath 3000 nM. Entry: CS(=O)(=O)Cc1cc(N2CCOCC2)nc(-c2ccc(NC(=O)c3ccno3)cc2)n1 [Example 5v]
Solution: True

Exercise: Criterion: IC50 strictly below 3000 nM. Is it met by C[C@H]1COCCN1c1cc(CS(C)(=O)=O)nc(-c2ccc(NC(=O)c3ccno3)cc2)n1 [Example 2] ?
Solution: True

Exercise: Take the compound CC(=O)NCC(=O)Nc1ccc(-c2nc(CS(C)(=O)=O)cc(N3CCOCC3)n2)cc1 [Example 5c] and say whether its IC50 is less than 3000 nM.
Solution: True

Exercise: Hello, is IC50 of the following compound strictly smaller than 3000 nM? CS(=O)(=O)Cc1cc(N2CCOCC2)nc(-c2ccc(NC(=O)C3CCOCC3)cc2)n1 [Example 5ac]
Solution: False

Exercise: Check if IC50 falls below 3000 nM for CS(=O)(=O)Cc1cc(N2CCOCC2)nc(-c2ccc(NC(=O)CN3CCCC3=O)cc2)n1 [Example 5aj] .
Solution: False

----------
target: mTOR kinase (Homo sapiens, UniProt P42345); construct: FLAG; made in house; experiment: In vitro mTOR kinase assay, Test (a)(i) (AlphaScreen); format: biochemical; conditions: recombinant FLAG-tagged mTOR (1362-2549), ATP 20 μM; read-out: Test (a)(i) IC50
assayEndpoint: pIC50
Just so you know, pIC50 here is -log10 of the concentration in molar units; reply with that number alone.

Exercise: Find the recorded pIC50 belonging to "CS(=O)(=O)Cc1cc(N2CCOCC2)nc(-c2ccc(NC(=O)C3(C(N)=O)CC3)cc2)n1" and report it.
Solution: 5.18

Exercise: Reported pIC50 for "Cc1ccn(CC(=O)Nc2ccc(-c3nc(CS(C)(=O)=O)cc(N4CCOCC4)n3)cc2)n1" : what is it?
Solution: 4.53

Exercise: Fill in the blank: the reported pIC50 of "CS(=O)(=O)Cc1cc(N2CCOCC2)nc(-c2ccc(NC(=O)CCC(F)(F)F)cc2)n1" is ____.
Solution: 5.95

Exercise: I am curious: what pIC50 value has been reported for "C[C@H]1COCCN1c1cc(CS(C)(=O)=O)nc(-c2ccc(N(C)C(=O)c3ccno3)cc2)n1" ?
Solution: 6.62

Exercise: Looking for the measured pIC50 of "CS(=O)(=O)Cc1cc(N2CCOCC2)nc(-c2ccc(NC(=O)CCC3CC3)cc2)n1" , can you help?
Solution: 5.30

Exercise: Data request, read-out pIC50, for "CS(=O)(=O)CC(=O)Nc1ccc(-c2nc(CS(C)(=O)=O)cc(N3CCOCC3)n2)cc1"
Solution: 5.75

Exercise: Look up pIC50 for this compound: "CS(=O)(=O)Cc1cc(N2CCOCC2)nc(-c2ccc(NC(=O)c3ccccc3)cc2)n1"
Solution: 4.82

----------
molecular target: mTOR kinase (Homo sapiens); construct: FLAG; made in house; assay: In vitro mTOR kinase assay, Test (a)(i) (AlphaScreen); assay type: biochemical; details: recombinant FLAG-tagged mTOR (1362-2549), ATP 20 μM; read-out: Test (a)(i) IC50
Lab note: anything with IC50 below 2000 nM is marked Y; values at 2000 nM or higher are marked N.

A selection of reference data follows.
Exercise: Field: below-cutoff. Rule: recorded IC50 strictly less than 2000 nM. Subject: "CS(=O)(=O)Cc1cc(N2CCOCC2)nc(-c2ccc(NC(=O)C3CC3)cc2)n1"
Solution: Y

Exercise: Given "CS(=O)(=O)Cc1cc(N2CCOCC2)nc(-c2ccc(NC(=O)CCC#N)cc2)n1" , is recorded IC50 strictly lower than 2000 nM?
Solution: Y

Exercise: Determine whether this compound shows IC50 lower than 2000 nM (ties excluded): "CC(C)C(=O)Nc1ccc(-c2nc(CS(C)(=O)=O)cc(N3CCOCC3)n2)cc1"
Solution: N

Exercise: Find out if reported IC50 for "CS(=O)(=O)Cc1cc(N2CCOCC2)nc(-c2ccc(NC(=O)C(F)F)cc2)n1" is less than 2000 nM
Solution: Y

---
Exercise: is_below(IC50, 2000 nM) for "CS(=O)(=O)Cc1cc(N2CCOCC2)nc(-c2ccc(NC(=O)CC#N)cc2)n1" ?
Solution: Y

Exercise: Please indicate whether the reported IC50 of "COCCC(=O)Nc1ccc(-c2nc(CS(C)(=O)=O)cc(N3CCOCC3)n2)cc1" is strictly below 2000 nM.
Solution: N

Exercise: I wonder whether "CCC(=O)Nc1ccc(-c2nc(CS(C)(=O)=O)cc(N3CCOCC3)n2)cc1" has IC50 below 2000 nM. Can you tell?
Solution: Y

Exercise: Is it true that IC50 reported for "CS(=O)(=O)Cc1cc(N2CCOCC2)nc(-c2ccc(NC(=O)CCc3c[nH]cn3)cc2)n1" is less than 2000 nM?
Solution: N

Exercise: Criterion: IC50 strictly below 2000 nM. Is it met by "COCC(=O)Nc1ccc(-c2nc(CS(C)(=O)=O)cc(N3CCOCC3)n2)cc1" ?
Solution: N

Exercise: In plain terms, does CC(=O)NC(C)C(=O)Nc1ccc(-c2nc(CS(C)(=O)=O)cc(N3CCOCC3)n2)cc1 (stereo not shown) come in under 2000 nM for IC50?
Solution: N

Exercise: Confirm or reject: IC50 of "CS(=O)(=O)Cc1cc(N2CCOCC2)nc(-c2ccc(NC(=O)Cn3ccnc3)cc2)n1" lies strictly below 2000 nM
Solution: N

Exercise: Input "CC(C)(C(N)=O)C(=O)Nc1ccc(-c2nc(CS(C)(=O)=O)cc(N3CCOCC3)n2)cc1" ; condition: IC50 strictly below 2000 nM. Does it hold?
Solution: N

Exercise: API: query returns whether the compound falls strictly under 2000 nM in IC50. Query: "CS(=O)(=O)Cc1cc(N2CCOCC2)nc(-c2ccc(NC(=O)C3(C#N)CC3)cc2)n1"
Solution: Y
